In this section, each of the compounds is paired with its reported IC50.
- SYSTEM NAME: HCV NS5B RdRp genotype 1b (Hepatitis C virus genotype 1b, UniProt Q9WMX2)
- Construct: The protein was expressed with an 18 amino acid C-terminal truncation to enhance the solubility; made in house; host or cells: E. coli BL21(DE3), pET21a vector
- Sequence (Q9WMX2 2420-2992): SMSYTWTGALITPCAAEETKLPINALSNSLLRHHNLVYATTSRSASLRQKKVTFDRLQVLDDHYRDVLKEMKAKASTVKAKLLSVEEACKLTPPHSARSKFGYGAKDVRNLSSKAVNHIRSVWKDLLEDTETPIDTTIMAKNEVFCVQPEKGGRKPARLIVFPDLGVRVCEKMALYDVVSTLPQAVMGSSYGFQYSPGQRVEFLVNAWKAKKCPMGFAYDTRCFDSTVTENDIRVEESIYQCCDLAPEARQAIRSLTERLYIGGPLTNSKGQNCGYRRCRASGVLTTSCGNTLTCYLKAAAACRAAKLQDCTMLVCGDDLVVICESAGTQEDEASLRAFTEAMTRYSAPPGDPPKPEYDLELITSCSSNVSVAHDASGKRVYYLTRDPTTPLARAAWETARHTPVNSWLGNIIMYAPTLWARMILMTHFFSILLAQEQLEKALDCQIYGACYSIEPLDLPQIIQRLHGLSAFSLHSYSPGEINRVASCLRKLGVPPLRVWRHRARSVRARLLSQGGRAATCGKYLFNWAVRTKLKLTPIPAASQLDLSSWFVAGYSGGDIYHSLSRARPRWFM
- PROCEDURE SUMMARY: Standard HCV NS5B RdRp enzyme assay
- Format: biochemical
- CONDITION CONTEXT: Table 1a; HCV NS5B RdRp genotype 1b; read-out: IC50

Recorded IC50, per entry:
                                   compound                               system_name               val
0  CNC(=O)c1c(-c2ccc(F)cc2)oc2ccc(-c3ccc(NC(=O)CCC(=O)O)cc3)cc12  HCV NS5B RdRp genotype 1b (Hepatitis C virus genotype 1b, UniProt Q9WMX2)  1000 to 10000 nM
1  CNC(=O)c1c(-c2ccc(F)cc2)oc2ccc(-c3cccc(C(=O)NC(C)(C)C)c3)cc12  HCV NS5B RdRp genotype 1b (Hepatitis C virus genotype 1b, UniProt Q9WMX2)          < 250 nM
2  CNC(=O)c1c(-c2ccc(F)cc2)oc2ccc(-c3cccc(C(=O)NCc4ccccn4)c3)cc12  HCV NS5B RdRp genotype 1b (Hepatitis C virus genotype 1b, UniProt Q9WMX2)          < 250 nM
3  CCOC(=O)[C@H](C)NC(=O)c1cccc(-c2ccc3oc(-c4ccc(F)cc4)c(C(=O)NC)c3c2)c1  HCV NS5B RdRp genotype 1b (Hepatitis C virus genotype 1b, UniProt Q9WMX2)          < 250 nM
4  C#CCNC(=O)c1cccc(-c2ccc3oc(-c4ccc(F)cc4)c(C(=O)NC)c3c2)c1  HCV NS5B RdRp genotype 1b (Hepatitis C virus genotype 1b, UniProt Q9WMX2)    250 to 1000 nM
5  CNC(=O)c1c(-c2ccc(F)cc2)oc2ccc(-c3cccc(C(=O)Nc4cccnc4)c3)cc12  HCV NS5B RdRp genotype 1b (Hepatitis C virus genotype 1b, UniProt Q9WMX2)          < 250 nM
6  CNC(=O)c1c(-c2ccc(F)cc2)oc2ccc(-c3cc(C(=O)NCC(C)C)ccc3O)cc12  HCV NS5B RdRp genotype 1b (Hepatitis C virus genotype 1b, UniProt Q9WMX2)          < 250 nM
7  CNC(=O)c1c(-c2ccc(F)cc2)oc2ccc(-c3ccc(C(F)(F)F)c(Cl)c3)cc12  HCV NS5B RdRp genotype 1b (Hepatitis C virus genotype 1b, UniProt Q9WMX2)        > 10000 nM

Given CNC(=O)c1c(-c2ccc(F)cc2)oc2ccc(-c3ccc(C(=O)NCC(=O)OC)cc3)cc12 , state its recorded IC50.
> 10000 nM

Given CNC(=O)c1c(-c2ccc(F)cc2)oc2ccc(-c3ccc(-c4ccccc4)c(C(=O)NC(C)(C)c4ccccc4)c3)cc12 , state its recorded IC50.
< 250 nM

Given CNC(=O)c1c(-c2ccc(F)cc2)oc2ccc(-c3ccc(C(=O)NCCNC(C)=O)cc3)cc12 , state its recorded IC50.
> 10000 nM

Given CNC(=O)c1c(-c2ccc(F)cc2)oc2ccc(-c3cccc(C(=O)Nc4cc(C)no4)c3)cc12 , state its recorded IC50.
1000 to 10000 nM

Given CCC(CC)NC(=O)c1cccc(-c2ccc3oc(-c4ccc(F)cc4)c(C(=O)NC)c3c2)c1 , state its recorded IC50.
< 250 nM
